These entries and their values trace back to patent US20090221642A1.

- measured_on: hM1 (human Muscarinic receptor subtype 1) (Homo sapiens)
- Construct: expressed in transfected cells; host or cells: CHO cells (Chinese hamster ovary cells, ATCC)
- Sequence (P11229 1-460): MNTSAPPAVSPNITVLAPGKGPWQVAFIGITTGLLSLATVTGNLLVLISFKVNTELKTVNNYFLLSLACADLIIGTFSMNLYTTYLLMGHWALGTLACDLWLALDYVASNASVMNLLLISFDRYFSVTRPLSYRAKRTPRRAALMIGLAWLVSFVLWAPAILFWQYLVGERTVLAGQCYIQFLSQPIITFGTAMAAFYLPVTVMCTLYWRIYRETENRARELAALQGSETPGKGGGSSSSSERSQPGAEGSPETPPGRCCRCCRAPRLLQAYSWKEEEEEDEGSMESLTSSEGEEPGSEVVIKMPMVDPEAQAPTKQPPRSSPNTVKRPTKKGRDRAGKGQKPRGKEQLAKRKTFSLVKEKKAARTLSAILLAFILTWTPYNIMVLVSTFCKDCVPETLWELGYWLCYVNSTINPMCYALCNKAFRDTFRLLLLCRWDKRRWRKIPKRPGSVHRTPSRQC
- measurement_notes: Human M1 calcium mobilization FLIPR assay
- Type: cell-based
- condition: hM1 EC50 (nM), hM1 expressed in CHO cells, intracellular Ca2+ release
metric_name: EC50

GET /values?readout=EC50&item= COC(=O)N1CCC(C)(N2CCC(N3C(=O)Cc4cc(F)c(C)cc43)CC2)C1 (single isomer, unassigned) [Example 83]
26.1 nM

GET /values?readout=EC50&item= COC(=O)N1CCC(C)(N2CCC(N3C(=O)Cc4cc(F)c(C)cc43)CC2)C1 (single isomer, unassigned) [Example 84]
7.7 nM

* * *

- measured_on: cloned human M2 receptor (human Muscarinic receptor subtype 2) (Homo sapiens, UniProt P08172)
- Construct: purchased Perkin-Elmer RBHM2M; host or cells: Chinese hamster ovary cells (CHO) membranes
- measurement_notes: hM2 receptor GTPγS binding
- Format: biochemical
- condition: CHO cell membranes expressing hM2; [35S]GTPγS binding; read-out: hM2 EC50
For each of the compounds below, state its EC50.
# value in µM; strip the unit string

GET /values?readout=EC50&item= COC(=O)N1CCC(C)(N2CCC(n3c(=O)[nH]c4cc(F)ccc43)CC2)C1 (stereo not shown) [Example 8]
1.28

GET /values?readout=EC50&item= Cc1ccc2[nH]c(=O)n(C3CCN(C4(C)CCN(C(=O)OC(C)C)C4)CC3)c2c1 (single isomer, unassigned) [Example 40]
2.81

GET /values?readout=EC50&item= CC1(N2CCC(n3c(=O)[nH]c4ccc(F)cc43)CC2)CCN(C(=O)OCCF)C1 (single isomer, unassigned)
1.62

GET /values?readout=EC50&item= CCOC(=O)N1CCC(C)(N2CCC(N3C(=O)Cc4ccccc43)CC2)C1 (single isomer, unassigned) [Example 72]
0.95

* * *

- measured_on: cloned human M2 receptor (human Muscarinic receptor subtype 2) (Homo sapiens)
- Construct: purchased Perkin-Elmer RBHM2M; host or cells: Chinese hamster ovary cells (CHO) membranes
- Sequence (P08172 1-466): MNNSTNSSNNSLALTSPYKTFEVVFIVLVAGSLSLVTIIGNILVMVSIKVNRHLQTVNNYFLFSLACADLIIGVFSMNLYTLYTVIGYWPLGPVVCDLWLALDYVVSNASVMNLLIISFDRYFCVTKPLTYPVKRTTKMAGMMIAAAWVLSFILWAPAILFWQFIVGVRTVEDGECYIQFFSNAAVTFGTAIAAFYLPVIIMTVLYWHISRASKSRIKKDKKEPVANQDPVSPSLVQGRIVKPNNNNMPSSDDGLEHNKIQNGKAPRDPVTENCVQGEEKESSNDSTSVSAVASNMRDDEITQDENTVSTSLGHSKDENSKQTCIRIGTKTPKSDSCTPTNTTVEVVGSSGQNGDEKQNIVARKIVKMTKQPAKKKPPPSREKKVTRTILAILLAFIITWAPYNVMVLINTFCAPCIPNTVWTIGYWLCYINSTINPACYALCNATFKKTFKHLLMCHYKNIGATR
- measurement_notes: hM2 receptor GTPγS binding
- Type: biochemical
- condition: hM2 EC50 (nM), CHO cell membranes expressing hM2; [35S]GTPγS binding
metric_name: EC50
# answer = value followed by unit

Find the measured EC50: item COC(=O)N1CCC(C)(N2CCC(N3C(=O)Cc4cc(F)c(C)cc43)CC2)C1 (single isomer, unassigned) [Example 84] , target or system cloned human M2 receptor (human Muscarinic receptor subtype 2) (Homo sapiens).
684 nM

Find the measured EC50: item COC(=O)N1CCC(C)(N2CCC(N3C(=O)Cc4cc(F)c(C)cc43)CC2)C1 (single isomer, unassigned) [Example 83] , target or system cloned human M2 receptor (human Muscarinic receptor subtype 2) (Homo sapiens).
2840 nM
